Each record here notes measured inhibition.
Target: Cytochrome P450 2C9 (Homo sapiens)
Experiment: blockers of cytochrome P450 2C9 activity – biochemical, luminescence, ADME assay, primary screen (AID 777)
Settings: CYP2C9 Supersomes, luciferin-H conversion, at 5 µM, stronger effect = higher value
Among all 96,000 compounds or so, about 19,000 (20%) were called active. These entries were drawn from the full list.
Quick note: give the figure in %, leave out the unit.

Item: O=C1CCC(Cc2ccccc2)N1 (stereo not drawn) | inhibition: 2

---
Item: CN(C)c1ccc(-n2cccc2/C=C2/SC(=Nc3ccc(F)cc3)NC2=O)cc1 | inhibition: 5.1

Item: O=C1CCCc2c1nc(-c1cccc(Cl)c1)n2O | inhibition: 11.3

Recorded values, source PubChem BioAssay AID777.
